- systemUnderTest: Estrogen receptor beta (Homo sapiens, UniProt Q92731)
- Sequence (Q92731 whole entry): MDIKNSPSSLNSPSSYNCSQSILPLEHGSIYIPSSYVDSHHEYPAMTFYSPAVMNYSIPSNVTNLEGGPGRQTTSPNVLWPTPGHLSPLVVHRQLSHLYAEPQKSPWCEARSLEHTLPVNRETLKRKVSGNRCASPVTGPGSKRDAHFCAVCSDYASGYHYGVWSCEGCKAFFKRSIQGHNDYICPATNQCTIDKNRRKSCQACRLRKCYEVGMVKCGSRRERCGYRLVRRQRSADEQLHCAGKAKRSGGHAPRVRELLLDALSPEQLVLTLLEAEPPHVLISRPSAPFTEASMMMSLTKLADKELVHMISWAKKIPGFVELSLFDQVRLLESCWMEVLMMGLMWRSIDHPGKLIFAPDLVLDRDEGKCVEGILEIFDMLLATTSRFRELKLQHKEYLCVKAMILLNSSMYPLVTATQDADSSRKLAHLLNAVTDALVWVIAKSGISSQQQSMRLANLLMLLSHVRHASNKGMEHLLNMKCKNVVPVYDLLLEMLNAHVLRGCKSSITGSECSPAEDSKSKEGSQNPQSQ
- experimentDescription: Displacement of fluorescein-labeled estradiol from human recombinant ERbeta at 1 uM by fluorescence polarization assay
measuredQuantity: Activity (%)

C=C(CCCC)[C@@H](NC(=O)c1ccccc1)c1ccccc1 : 3
CCC[C@@H]1C[C@@]1(CCC)[C@@H](NS(=O)(=O)c1cccc2cccnc12)c1ccc(-c2ccccc2)cc1 : 17
CCCC[C@@H]1C[C@H]1[C@@H](NC(=O)c1ccccc1)c1ccc(C(=O)OC)cc1 : -2
CCCC[C@@H]1C[C@@]1(C)[C@@H](NS(=O)(=O)c1cccc2cccnc12)c1ccc(-c2ccccc2)cc1 : -4
CCC/C=C(\CCC)[C@@H](NC(=O)c1ccccc1)c1ccccc1 : 6
CCCC[C@@H]1C[C@H]1C(NC(=O)c1ccco1)c1ccc(C(=O)OC)cc1 (single isomer, unassigned) : 2
CCCC[C@@H]1C[C@H]1[C@@H](NC(=O)Cc1ccccc1)c1ccc(-c2ccccc2)cc1 : 8
CCC/C=C(\CCC)[C@@H](NS(=O)(=O)c1ccccc1Cl)c1ccc(C(=O)OC)cc1 : 32
CCC/C=C(\CCC)[C@@H](NC(=O)c1ccc(C(F)(F)F)cc1)c1ccc(C(F)(F)F)cc1 : 5
CCC/C=C(\CCC)[C@@H](NC(=O)c1ccc(-c2ccccc2)cc1)c1ccc(C(=O)OC)cc1 : -3
CCCC[C@@H]1C[C@H]1[C@@H](NC(=O)c1ccccc1)c1ccc(C(F)(F)F)cc1 : 1
CCC/C=C(\CCC)[C@@H](NP(=O)(c1ccccc1)c1ccccc1)c1ccccc1 : 9
CCC[C@@H]1C[C@@]1(CCC)[C@@H](NP(=O)(c1ccccc1)c1ccccc1)c1ccc(Cl)cc1 : -1
CCC/C=C(\CCC)[C@@H](NC(=O)c1ccccc1)c1ccc(C(=O)OC)cc1 : 28
CCCC[C@@H]1C[C@H]1[C@@H](NC(=O)c1cccnc1)c1ccc(-c2ccccc2)cc1 : 2
CCCC[C@@H]1C[C@H]1[C@@H](NC(=O)c1ccco1)c1ccc(C(F)(F)F)cc1 : 2
CCC/C=C(\CCC)[C@@H](NS(=O)(=O)c1ccccc1)c1ccc(C(F)(F)F)cc1 : 10
CCC/C=C(\CCC)[C@@H](NC(=O)CC(C)C)c1ccccc1 : 3
CCC/C=C(\CCC)[C@@H](NC(=O)CCc1ccccc1)c1ccc(C(F)(F)F)cc1 : 13
CCCC[C@@H]1C[C@H]1[C@@H](NC(=O)c1ccco1)c1ccccc1 : 7
CCCCCC/C=C(\C)[C@@H](NC(=O)c1ccc(C(F)(F)F)cc1)c1ccc(-c2ccccc2)cc1 : -6
CCC/C=C(\CCC)[C@@H](NS(=O)(=O)c1cccs1)c1ccc(C(=O)OC)cc1 : 8
CCCC[C@@H]1C[C@H]1[C@@H](NS(=O)(=O)c1cccc2cccnc12)c1ccc(-c2ccccc2)cc1 : 18
C=C(CCCC)[C@@H](NC(=O)c1ccc(C(F)(F)F)cc1)c1ccccc1 : -7
C=C(CCCC)[C@@H](NC(=O)c1cccs1)c1ccccc1 : -3
CCC/C=C(\CCC)[C@@H](NS(=O)(=O)c1ccc(-c2ccccc2)cc1)c1ccc(C(=O)OC)cc1 : 12
CCC/C=C(\CCC)[C@@H](NS(=O)(=O)c1ccc(C(F)(F)F)cc1)c1ccc(C(=O)OC)cc1 : 29
CCCC[C@@H]1C[C@H]1[C@@H](NC(=O)c1ccc(-c2ccccc2)cc1)c1ccc(-c2ccccc2)cc1 : 6
CCCC[C@@H]1C[C@H]1[C@@H](NC(=O)c1ccco1)c1ccc(-c2ccccc2)cc1 : 0
CCCC[C@@H]1C[C@H]1[C@@H](NC(=O)c1ccc(C(F)(F)F)cc1)c1ccc(C(=O)OC)cc1 : 1
CCC/C=C(\CCC)[C@@H](NS(=O)(=O)c1ccc(C(Cl)(Cl)Cl)cc1)c1ccccc1 : 13
CCC/C=C(\CCC)[C@@H](NP(=O)(c1ccccc1)c1ccccc1)c1ccc(C(F)(F)F)cc1 : 16
CCC/C=C(\CCC)[C@@H](NP(=O)(c1ccccc1)c1ccccc1)c1ccc(-c2ccccc2)cc1 : -10
C=C(CCCC)[C@@H](NC(=O)c1ccc(-c2ccccc2)cc1)c1ccccc1 : 2
CCC/C=C(\CCC)[C@@H](NS(=O)(=O)c1ccc(C(F)(F)F)cc1)c1ccccc1 : 10
CCCC[C@@H]1C[C@H]1[C@@H](NC(=O)c1ccccc1)c1ccc(-c2ccccc2)cc1 : 31
CCC/C=C(\CCC)[C@@H](NC(=O)C(C)(C)C)c1ccc(C(=O)OC)cc1 : -4
